test system: anti-CR2 SCR1-2 monoclonal antibody 171; experiment: MBP-CR2 SCR1-2-171 mAb ELISA; assay type: binding; details: mutant MBP-CR2 SCR1-2 relative to wild-type; plate-bound 171 mAb
recorded-endpoint: % 171 mAb Binding (%)
One number for each entry, in %.

The following molecules have reported results that may help.
molecule	result-value
R36A: single-site mutant of recombinant MBP-CR2 SCR1-2 (protein, left off: large carriers; small tags and cut ends) ISCGSPPPILNGRISYYSTPIAVGTVIRYSCSGTFALIGEKSLLCITKDKVDGTWDKPAPKCEYFNKYSSCPEPIVPGGYKIRGSTPYRHGDSVTFACKTNFSMNGNKSVWCQANNMWGPTRLPTCVSVFPLE	19.8
N11A: single-site mutant of recombinant MBP-CR2 SCR1-2 (protein, left off: large carriers; small tags and cut ends) ISCGSPPPILAGRISYYSTPIAVGTVIRYSCSGTFRLIGEKSLLCITKDKVDGTWDKPAPKCEYFNKYSSCPEPIVPGGYKIRGSTPYRHGDSVTFACKTNFSMNGNKSVWCQANNMWGPTRLPTCVSVFPLE	24.1
Y16A: single-site mutant of recombinant MBP-CR2 SCR1-2 (protein, left off: large carriers; small tags and cut ends) ISCGSPPPILNGRISAYSTPIAVGTVIRYSCSGTFRLIGEKSLLCITKDKVDGTWDKPAPKCEYFNKYSSCPEPIVPGGYKIRGSTPYRHGDSVTFACKTNFSMNGNKSVWCQANNMWGPTRLPTCVSVFPLE	81.4
Y64A: single-site mutant of recombinant MBP-CR2 SCR1-2 (protein, left off: large carriers; small tags and cut ends) ISCGSPPPILNGRISYYSTPIAVGTVIRYSCSGTFRLIGEKSLLCITKDKVDGTWDKPAPKCEAFNKYSSCPEPIVPGGYKIRGSTPYRHGDSVTFACKTNFSMNGNKSVWCQANNMWGPTRLPTCVSVFPLE	5.8

Q: Please give the measured % 171 mAb Binding for this molecule: R89A: single-site mutant of recombinant MBP-CR2 SCR1-2 (protein, left off: large carriers; small tags and cut ends) ISCGSPPPILNGRISYYSTPIAVGTVIRYSCSGTFRLIGEKSLLCITKDKVDGTWDKPAPKCEYFNKYSSCPEPIVPGGYKIRGSTPYAHGDSVTFACKTNFSMNGNKSVWCQANNMWGPTRLPTCVSVFPLE
A: 93.9
